B1: USP39 (parent)
chain: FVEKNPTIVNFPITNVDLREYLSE

- Variants of: B1
- ASSAY NAME: protein stability index of a GFP-peptide fusion (GPS, HEK-293T) (PSI 1-6); higher = more stable;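 also: lentivirally expressed fusions sorted by FACS into six bins by GFP to DsRed ratio, PSI derived from sequencing read proportions per bin multiplied by bin number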
- PARTICULARS: c terminus: a fixed tail appended
METRIC NAME: protein stability index

# annotated cases, reported protein stability index shown
[
  {
    "CHANGE": "V9Q",
    "protein stability index": 2.03
  },
  {
    "CHANGE": "I13H",
    "protein stability index": 1.81
  }
]

Quick one: protein stability index of E24R ?
1.53

Quick one: protein stability index of F1A ?
3.59

Quick one: protein stability index of K4G ?
2.11

Quick one: protein stability index of N15R ?
2.21

Quick one: protein stability index of T7F ?
1.8

Quick one: protein stability index of I8W ?
2.96

Quick one: protein stability index of P6F ?
2.6

Quick one: protein stability index of E3S ?
3.64

Quick one: protein stability index of F11Q ?
2.09

Quick one: protein stability index of D17N ?
1.55
